Here, each record is paired with measured inhibition of IKZF1 HTRF signal data.
target: IKZF1 (dCK*-IKZF1 fusion in HEK293FT); test: inhibition of IKZF1 HTRF signal (DMSO = 0%, pomalidomide 10 uM = 100%); higher = lower IKZF1 protein level; conditions: compound concentration: 5 uM, overnight (~20 h)

[in] Find inhibition of IKZF1 HTRF signal (IKZF1 (dCK*-IKZF1 fusion in HEK293FT)) for the entry Clc1ccccc1C(c1ccccc1)(c1ccccc1)n1cccn1
[out] -25.1%

[in] Find inhibition of IKZF1 HTRF signal (IKZF1 (dCK*-IKZF1 fusion in HEK293FT)) for the entry CC[C@@H](C(N)=O)N1CCCC1=O
[out] 17.7%

[in] Find inhibition of IKZF1 HTRF signal (IKZF1 (dCK*-IKZF1 fusion in HEK293FT)) for the entry C[C@]12CC[C@H](O)C[C@H]1CC[C@@H]1[C@@H]2CC[C@]2(C)[C@@H](C3=CC(=O)OC3)CC[C@]12O [digitoxigenin]
[out] 40.7%

[in] Find inhibition of IKZF1 HTRF signal (IKZF1 (dCK*-IKZF1 fusion in HEK293FT)) for the entry CCCCCCC[n+]1ccc(-c2cc[n+](CCCCCCC)cc2)cc1
[out] -27.9%

Please turn your attention to the following entry.
[in] Find inhibition of IKZF1 HTRF signal (IKZF1 (dCK*-IKZF1 fusion in HEK293FT)) for the entry N#Cc1cn([C@@H]2O[C@H](CO)[C@@H](O)[C@H]2O)c2ncnc(N)c12 [toyocamycin]
[out] 44.4%

###

target: IKZF1 (dCK*-IKZF1 fusion in HEK293FT); experiment: inhibition of IKZF1 HTRF signal (DMSO = 0%, pomalidomide 10 uM = 100%); higher = lower IKZF1 protein level; conditions: compound concentration: 5 uM, overnight (~20 h)
Lab note: anything with inhibition of IKZF1 HTRF signal at or over 10% counts as condition met; the rest go in condition not met.

Use these answered entries as a reference point.
[in] API: above_or_equal(metric=inhibition of IKZF1 HTRF signal, cutoff=10%) for item O=c1n(Cl)c(=O)n(Cl)c(=O)n1Cl
[out] condition not met

[in] API: above_or_equal(metric=inhibition of IKZF1 HTRF signal, cutoff=10%) for item CC(C)[C@]12O[C@H]1[C@@H]1O[C@]13[C@]1(O[C@H]1C[C@H]1C4=C(CC[C@@]13C)C(=O)OC4)[C@@H]2O [Triptolide]
[out] condition met

[in] API: above_or_equal(metric=inhibition of IKZF1 HTRF signal, cutoff=10%) for item O=C(CCCN1CCC2(CC1)C(=O)NCN2c1ccccc1)c1ccc(F)cc1
[out] condition not met

--- query ---
[in] API: above_or_equal(metric=inhibition of IKZF1 HTRF signal, cutoff=10%) for item CN(C)C(=S)SSC(=S)N(C)C
[out] condition not met

###

Here, each record is paired with measured inhibition of IKZF1 HTRF signal data.
target: IKZF1 (dCK*-IKZF1 fusion in HEK293FT); experiment: inhibition of IKZF1 HTRF signal (DMSO = 0%, pomalidomide 10 uM = 100%); higher = lower IKZF1 protein level; conditions: compound concentration: 5 uM, overnight (~20 h)
Express your answer in %, writing the number without its unit.

In the examples that follow, each entry is paired with its recorded inhibition of IKZF1 HTRF signal.
[in] Recorded inhibition of IKZF1 HTRF signal for C[C@@H]1C[C@@H]([C@H](O)CC2CC(=O)NC(=O)C2)C(=O)[C@@H](C)C1 , please?
[out] 79.8

[in] Recorded inhibition of IKZF1 HTRF signal for Clc1ccc(N2CCN(Cc3c[nH]c4ncccc34)CC2)cc1 , please?
[out] -41.5

[in] Recorded inhibition of IKZF1 HTRF signal for O=C1/C(=C/c2ccccc2)C[C@@]2(O)C3Cc4ccc(O)c5c4[C@@]2(CCN3CC2CC2)[C@H]1O5 , please?
[out] 27.9

[in] Recorded inhibition of IKZF1 HTRF signal for C[C@@]1(CO)[C@H](O)CC[C@@]2(C)[C@H]1CC[C@H]1C[C@@H]3C[C@@]12CC[C@]3(O)CO [Aphidicolin] , please?
[out] -14.2

[in] Recorded inhibition of IKZF1 HTRF signal for COc1cc2c(c(OC)c1OC)-c1ccc(OC)c(=O)cc1[C@@H](NC(C)=O)CC2 , please?
[out] -16.1

[in] Recorded inhibition of IKZF1 HTRF signal for CC(=O)OC[C@]12CCC(C)=C[C@H]1O[C@@H]1[C@H](O)[C@@H](OC(C)=O)[C@@]2(C)[C@@]12CO2 [Diacetoxyscirpenol] , please?
[out] 93.3

Continuing:
[in] Recorded inhibition of IKZF1 HTRF signal for CO[C@H]1[C@H](O)[C@H](O[C@H]2CC[C@@]3(C=O)[C@H](CC[C@@H]4[C@@H]3CC[C@]3(C)[C@@H](C5=CC(=O)OC5)CC[C@]43O)C2)O[C@@H](C)[C@@H]1O [Peruvoside] , please?
[out] 94.1
